Each recorded value in this set is attributed to ChEMBL document CHEMBL1131804.

Experiment: Inhibitory activity against influenza virus A(N9) sialidase
Ki overview
measure: Ki (nM)

1) CC(=O)NC1C(O)C=C(C(=O)O)OC1OC(C)C (configuration not stated): 2700
2) CC(=O)N[C@H]1[C@H]([C@H](O)[C@H](O)CO)OC(C(=O)O)=C[C@@H]1O [NEU5AC2EN]: 1300

* * *

Test: Inhibitory activity against Vibrio cholerae sialidase
measure: Ki (µM)

1. CC(=O)NC1C(O)C=C(C(=O)O)OC1OC(C)C (configuration not stated): 120
2. CC(=O)N[C@H]1[C@H]([C@H](O)[C@H](O)CO)OC(C(=O)O)=C[C@@H]1O: 3.4
